The reported measurements were obtained from ChEMBL document CHEMBL1142066.

- System: Staphylococcus lugdunensis
- assay_procedure: Antimicrobial susceptibility of Staphylococcus lugdunensis IDRL5204 biofilms after 24 hrs assessed as bacterial regrowth
- Format: functional
Exercise: for every item that follows, state its recorded BBC.
Numbers only, in µg/mL.

// worked examples, BBC included
Prompt line: Query BBC for `CCOc1ccc2ccccc2c1C(=O)N[C@@H]1C(=O)N2[C@@H]1SC(C)(C)[C@@H]2C(=O)O`
Response line: 0.5

Prompt line: Query BBC for `CN(C)[C@@H]1C(O)=C(C(N)=O)C(=O)[C@@]2(O)C(O)=C3C(=O)c4c(O)cccc4[C@@](C)(O)[C@H]3C[C@@H]12`
Response line: 1

Prompt line: Query BBC for `CCCCCCCCCC(=O)N[C@@H](Cc1c[nH]c2ccccc12)C(=O)N[C@H](CC(N)=O)C(=O)N[C@@H](CC(=O)O)C(=O)N[C@@H]1C(=O)NCC(=O)N[C@@H](CCCN)C(=O)N[C@@H](CC(=O)O)C(=O)N[C@H](C)C(=O)N[C@@H](CC(=O)O)C(=O)NCC(=O)N[C@H](CO)C(=O)N[C@@H]([C@H](C)CC(=O)O)C(=O)N[C@@H](CC(=O)c2ccccc2N)C(=O)O[C@@H]1C`
Response line: 8

Prompt line: Query BBC for `Cc1nnc(SCC2=C(C(=O)O)N3C(=O)[C@@H](NC(=O)Cn4cnnn4)[C@H]3SC2)s1`
Response line: 1

Prompt line: Query BBC for `CO[C@H]1/C=C/O[C@@]2(C)Oc3c(C)c(O)c4c(O)c(c(/C=N/N5CCN(C)CC5)c(O)c4c3C2=O)NC(=O)/C(C)=C\C=C\[C@H](C)[C@H](O)[C@@H](C)[C@@H](O)[C@@H](C)[C@H](OC(C)=O)[C@@H]1C`
Response line: 32

Prompt line: Query BBC for `CC(=O)NC[C@H]1CN(c2ccc(N3CCOCC3)c(F)c2)C(=O)O1`
Response line: 4

Prompt line: Query BBC for `CN[C@H](CC(C)C)C(=O)N[C@H]1C(=O)N[C@@H](CC(N)=O)C(=O)N[C@H]2C(=O)N[C@H]3C(=O)N[C@H](C(=O)N[C@H](C(=O)O)c4cc(O)cc(O)c4-c4cc3ccc4O)[C@H](O)c3ccc(c(Cl)c3)Oc3cc2cc(c3O[C@@H]2O[C@H](CO)[C@@H](O)[C@H](O)[C@H]2O[C@H]2C[C@](C)(N)[C@H](O)[C@H](C)O2)Oc2ccc(cc2Cl)[C@H]1O`
Response line: 4

Now let's try a different one.
Prompt line: Query BBC for `COc1c(N2C[C@@H]3CCCN[C@@H]3C2)c(F)cc2c(=O)c(C(=O)O)cn(C3CC3)c12`
Response line: 0.5

----------
- Test system: Staphylococcus lugdunensis
- assay_procedure: Antimicrobial susceptibility of Staphylococcus lugdunensis IDRL2639 biofilms after 24 hrs assessed as bacterial regrowth
- Assay type: functional
test_readout: BBC (µg/mL)
Give bare numbers, in µg/mL.

// worked examples, BBC included
Prompt line: Query BBC for `COc1c(N2C[C@@H]3CCCN[C@@H]3C2)c(F)cc2c(=O)c(C(=O)O)cn(C3CC3)c12`
Response line: 0.25

Prompt line: Query BBC for `CN(C)[C@@H]1C(O)=C(C(N)=O)C(=O)[C@@]2(O)C(O)=C3C(=O)c4c(O)cccc4[C@@](C)(O)[C@H]3C[C@@H]12`
Response line: 16

Others:
Prompt line: Query BBC for `Cc1nnc(SCC2=C(C(=O)O)N3C(=O)[C@@H](NC(=O)Cn4cnnn4)[C@H]3SC2)s1`
Response line: 4
